Target: T1, G9a and GLP (Homo sapiens, UniProt Q96KQ7+Q9H9B1)
T1 sequence (Q96KQ7 2-1210 limits assumed): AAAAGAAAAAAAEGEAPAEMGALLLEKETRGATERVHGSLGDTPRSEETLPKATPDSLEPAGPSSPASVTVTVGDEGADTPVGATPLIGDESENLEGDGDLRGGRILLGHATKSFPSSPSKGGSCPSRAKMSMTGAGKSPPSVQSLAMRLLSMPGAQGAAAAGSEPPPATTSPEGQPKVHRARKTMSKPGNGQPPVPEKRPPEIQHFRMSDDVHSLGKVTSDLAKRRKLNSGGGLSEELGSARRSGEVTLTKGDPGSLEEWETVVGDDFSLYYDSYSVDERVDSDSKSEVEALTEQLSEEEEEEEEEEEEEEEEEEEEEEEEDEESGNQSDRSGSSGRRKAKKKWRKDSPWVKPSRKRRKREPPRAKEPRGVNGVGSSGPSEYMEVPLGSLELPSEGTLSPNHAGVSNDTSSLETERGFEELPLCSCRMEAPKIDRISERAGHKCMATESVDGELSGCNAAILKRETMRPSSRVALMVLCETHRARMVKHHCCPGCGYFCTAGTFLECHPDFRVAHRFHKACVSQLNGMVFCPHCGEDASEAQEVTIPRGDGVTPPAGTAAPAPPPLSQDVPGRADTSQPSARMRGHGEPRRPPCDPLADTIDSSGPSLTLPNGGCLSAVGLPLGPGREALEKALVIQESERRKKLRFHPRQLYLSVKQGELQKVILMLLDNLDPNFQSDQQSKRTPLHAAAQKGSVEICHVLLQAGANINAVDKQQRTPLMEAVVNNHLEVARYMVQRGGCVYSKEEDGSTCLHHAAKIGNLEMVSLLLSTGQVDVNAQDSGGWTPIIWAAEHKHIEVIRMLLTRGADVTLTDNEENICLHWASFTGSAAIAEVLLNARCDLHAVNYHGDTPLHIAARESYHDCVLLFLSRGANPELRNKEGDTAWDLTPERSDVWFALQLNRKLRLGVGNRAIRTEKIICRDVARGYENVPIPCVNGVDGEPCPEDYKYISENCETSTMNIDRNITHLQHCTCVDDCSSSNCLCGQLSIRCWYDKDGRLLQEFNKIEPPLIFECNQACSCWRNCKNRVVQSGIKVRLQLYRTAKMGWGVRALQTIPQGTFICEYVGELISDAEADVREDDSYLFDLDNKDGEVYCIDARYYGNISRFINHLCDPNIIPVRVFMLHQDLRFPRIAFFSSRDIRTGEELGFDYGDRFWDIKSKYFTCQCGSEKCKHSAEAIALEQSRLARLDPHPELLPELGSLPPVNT
T1 sequence (Q9H9B1 2-1298 limits assumed): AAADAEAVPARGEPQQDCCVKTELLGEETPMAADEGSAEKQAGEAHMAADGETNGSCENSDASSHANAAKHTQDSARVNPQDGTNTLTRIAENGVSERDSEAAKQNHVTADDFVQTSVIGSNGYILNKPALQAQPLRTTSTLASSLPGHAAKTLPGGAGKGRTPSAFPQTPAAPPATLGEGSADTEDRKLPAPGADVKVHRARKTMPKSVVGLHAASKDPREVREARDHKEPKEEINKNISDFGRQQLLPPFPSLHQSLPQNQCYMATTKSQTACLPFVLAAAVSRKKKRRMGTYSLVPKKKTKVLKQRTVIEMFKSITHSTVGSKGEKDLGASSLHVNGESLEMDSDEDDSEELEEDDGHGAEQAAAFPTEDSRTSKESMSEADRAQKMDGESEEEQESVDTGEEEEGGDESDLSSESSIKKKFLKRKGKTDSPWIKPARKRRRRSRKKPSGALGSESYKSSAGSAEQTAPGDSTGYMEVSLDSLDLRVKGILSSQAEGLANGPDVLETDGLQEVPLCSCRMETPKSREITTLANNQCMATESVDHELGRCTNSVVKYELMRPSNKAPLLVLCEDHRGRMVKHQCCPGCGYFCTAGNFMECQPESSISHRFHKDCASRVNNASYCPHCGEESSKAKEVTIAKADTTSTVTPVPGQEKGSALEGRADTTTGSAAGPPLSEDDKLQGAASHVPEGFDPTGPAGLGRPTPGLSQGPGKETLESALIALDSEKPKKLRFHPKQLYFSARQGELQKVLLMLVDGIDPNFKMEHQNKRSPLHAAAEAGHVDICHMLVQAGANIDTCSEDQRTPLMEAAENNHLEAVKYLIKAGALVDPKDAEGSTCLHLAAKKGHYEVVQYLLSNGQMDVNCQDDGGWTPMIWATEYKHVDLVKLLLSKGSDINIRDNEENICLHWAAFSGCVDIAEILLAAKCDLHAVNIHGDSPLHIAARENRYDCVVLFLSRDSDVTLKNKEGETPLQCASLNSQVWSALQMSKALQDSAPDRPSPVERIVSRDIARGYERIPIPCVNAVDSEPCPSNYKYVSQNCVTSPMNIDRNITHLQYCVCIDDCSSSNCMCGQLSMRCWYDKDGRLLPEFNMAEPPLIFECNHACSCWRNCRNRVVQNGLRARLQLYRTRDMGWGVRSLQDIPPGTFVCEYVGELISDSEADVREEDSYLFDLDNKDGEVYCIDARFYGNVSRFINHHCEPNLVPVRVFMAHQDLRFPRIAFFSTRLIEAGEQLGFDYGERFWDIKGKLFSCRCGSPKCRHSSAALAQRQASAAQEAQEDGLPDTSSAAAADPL
Experiment: Triple SILAC pull-down after UNC0638 treatment of 293T cells, DMSO/UNC0638 ratio of protein captured by 3×MBT;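 note: mass spectrometry (Q-Exactive) SILAC quantitation, DMSO/UNC0638 ratio computed after subtracting 3×MBTD355N mutant pull-down background, only proteins with at least twofold 3×MBT over mutant signal considered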
Assay type: cell-based
Design: cells were treated for 24 hours with UNC0638 at 2.5 μM or DMSO vehicle control; endogenous in cells; host or cells: HEK 293T
Details: SILAC ratio DMSO relative to UNC0638, pull-down with 3xMBT; UNC0638 in light SILAC media; all values in log base 2
Reported Relative to UNC0638 UNC Light is given for each of the following molecules.
metric: Relative to UNC0638 UNC Light (log base 2)

• EEF1B2 (protein, UniProt P24534 2-225, looked up) Elongation factor 1-beta: GFGDLKSPAGLQVLNDYLADKSYIEGYVPSQADVAVFEAVSSPPPADLCHALRWYNHIKSYEKEKASLPGVKKALGKYGPADVEDTTGSGATDSKDDDDIDLFGSDDEEESEEAKRLREERLAQYESKKAKKPALVAKSSILLDVKPWDDETDMAKLEECVRSIQADGLVWGSSKLVPVGYGIKKLQIQCVVEDDKVGTDMLEEQITAFEDYVQSMDVAAFNKI = −0.64
• ZRANB2 (protein, UniProt O95218 1-330, looked up) Zinc finger Ran-binding …: MSTKNFRVSDGDWICPDKKCGNVNFARRTSCNRCGREKTTEAKMMKAGGTEIGKTLAEKSRGLFSANDWQCKTCSNVNWARRSECNMCNTPKYAKLEERTGYGGGFNERENVEYIEREESDGEYDEFGRKKKKYRGKAVGPASILKEVEDKESEGEEEDEDEDLSKYKLDEDEDEDDADLSKYNLDASEEEDSNKKKSNRRSRSKSRSSHSRSSSRSSSPSSSRSRSRSRSRSSSSSQSRSRSSSRERSRSRGSKSRSSSRSHRGSSSPRKRSYSSSSSSPERNRKRSRSRSSSSGDRKKRRTRSRSPERRHRSSSGSSHSGSRSSSKKK = −0.02

Recorded values, source patent US20140274782A1.
